test system: MT4; experiment: Cytotoxicity to reduce MT-4 cell viability by 50%; type: functional; conditions: Homo sapiens
We begin with a simple list: items and their reported CC50.

COMPOUND	CC50
O=C1CSC(c2c(F)cccc2F)N1c1ccccn1 (centres undefined)	> 427 µM
Cc1ccnc(N2C(=O)CSC2c2c(Cl)cccc2Cl)c1 (centres undefined)	> 368 µM

I am curious: what CC50 value has been reported for O=C1CSC(c2c(Cl)cccc2Cl)N1c1ccccc1 (centres undefined) ? 38.1 µM

I am curious: what CC50 value has been reported for Cc1cccnc1N1C(=O)CSC1c1c(F)cccc1F (centres undefined) ? > 319 µM

I am curious: what CC50 value has been reported for Fc1cccc(F)c1C1SCc2nc3ccccc3n21 (centres undefined) ? 19.2 µM

----------
system: MT4; assay: Concentration required to reduce HIV-1-induced cytopathic effect by 50% in MT-4 cells against HIV-1 IIIB; format: functional, cell-based; details: Homo sapiens
QUANTITY_NAME: EC50 (µM)
Write the value in µM as a bare number.

I am curious: what EC50 value has been reported for O=C1CSC(c2c(F)cccc2F)N1c1ccccc1 (stereo unspecified) ? 2.3

----------
system: MT4; assay: Evaluated for the inhibition of replication of HIV-1 IIIB or HIV-2 (ROD) in MT-4 cells by using [3H]-dGTP as the radiolabeled substrate; type: functional, cell-based; settings: Homo sapiens
QUANTITY_NAME: pIC50
// returns pIC50 (minus log10 of molar concentration), number only

I am curious: what pIC50 value has been reported for Fc1cccc(F)c1C1SCc2nc3ccccc3n21 (stereo unspecified) ? 4.84

----------
test system: MT4; assay: Concentration required to reduce HIV-1-induced cytopathic effect by 50% in MT-4 cells against HIV-2 ROD; assay type: functional, cell-based; conditions: Homo sapiens
QUANTITY_NAME: EC50

I am curious: what EC50 value has been reported for O=C1CSC(c2c(F)cccc2F)N1c1ccccc1 (stereo unspecified) ? > 429 µM

----------
test system: MT4; assay: Cytotoxicity to reduce MT-4 cell viability by 50%; type: functional; details: Homo sapiens
Kindly apply the following: 1 if CC50 is less than 40 µM, 0 in every other case.

COMPOUND	CATEGORY
Cc1cccc(N2C(=O)CSC2c2c(F)cccc2F)n1 (centres undefined)	0
Cc1cccc(N2C(=O)CSC2c2c(Cl)cccc2Cl)n1 (centres undefined)	0
Clc1cccc(Cl)c1C1SCc2nc3ccccc3n21 (centres undefined)	1
O=C1CSC(c2c(Cl)cccc2Cl)N1c1cccnc1 (centres undefined)	1

Now examine the next entry.
Determine if Cc1ccnc(N2C(=O)CSC2c2c(F)cccc2F)c1 (centres undefined) shows CC50 strictly lower than 40 µM. 0

----------
We begin with a simple list: items and their reported CC50.
tested on: MT4; assay: Cytotoxicity to reduce MT-4 cell viability by 50%; assay type: functional; conditions: Homo sapiens
Write the value in µM as a bare number.

Field: example entries. Status: answers known.
MOLECULE	TARGET_OR_TEST_SYSTEM	CC50 (µM)
Cc1ccc(N2C(=O)CSC2c2c(F)cccc2F)nc1 (centres undefined)	MT4	202
O=C1CSC(c2c(Cl)cccc2Cl)N1c1ccccn1 (centres undefined)	MT4	38.5

Give recorded CC50 with MT4 for the following molecule: Cc1cccnc1N1C(=O)CSC1c1c(Cl)cccc1Cl (centres undefined) 42.6
